// provenance: PubChem BioAssay AID652046

method: inhibitors of IL-1beta-induced GFP signal – cell-based, eGFP reporter, dsRed control, flow cytometry, dry powder, selectivity assay for EBV LMP1 NF-kB inhibitor project, dose response (AID 652046)
experimental_conditions: IL-1beta-stimulated NF-kB eGFP reporter/dsRed, flow cytometry, 16 h; at 19.5 µM (top of the series)
Results filed as inconclusive are left out.
metric_name: activity change, negative = inhibition (%)
Lab book: enter the figure in %, no units written.

Consider the compound "CN1C(=O)c2cc(NS(C)(=O)=O)ccc2OC[C@@H]2O[C@@H](CC(=O)NCc3ccc(-c4ccccc4)cc3)CC[C@H]21" and give its measured activity change, negative = inhibition.
10.3

Suppose we examine the compound "O=C(C[C@@H]1C[C@H]2c3cc(NS(=O)(=O)c4ccc(F)cc4)ccc3O[C@H]2[C@H](CO)O1)NCc1ccc(Oc2ccccc2)cc1" ; what activity change, negative = inhibition value has been reported?
6.68

I have this compound here, "COCCNC(=O)C[C@@H]1C[C@H]2c3cc(N(C)C)ccc3O[C@H]2[C@H](CO)O1" , and I need its recorded activity change, negative = inhibition.
-7.46

Quick one: activity change, negative = inhibition for "CN(C)c1ccc2c(c1)[C@@H]1C[C@@H](CC(=O)NCCc3ccccc3)O[C@@H](CO)[C@@H]1O2" ?
-4.63

Consider the compound shown here: "CN(C)c1ccc2c(c1)[C@@H]1C[C@@H](CC(=O)NCC3CC3)O[C@@H](CO)[C@@H]1O2" What is its recorded activity change, negative = inhibition?
-1.79
